biological target: biotinylated human FcγRIII (CD16a), variant not stated (human) (UniProt P08637); assay: SPR Method A
Sequence (P08637 17-208, change not shown): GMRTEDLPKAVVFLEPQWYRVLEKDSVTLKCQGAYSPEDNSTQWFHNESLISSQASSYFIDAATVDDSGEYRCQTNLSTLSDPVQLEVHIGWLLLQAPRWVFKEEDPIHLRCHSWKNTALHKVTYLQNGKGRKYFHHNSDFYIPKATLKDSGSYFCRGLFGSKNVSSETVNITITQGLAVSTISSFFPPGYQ
pKd: −log10 of the molar value. Numbered stars: 1 amine (or outer) side, 2 acyl side, 3 side chain; on linkers, the order of the positions; unused ones are H or OH. Bridge positions count the residues as written; N and C are the ends. Ends that are not written are not given here. * marks the point of attachment. TBMT = 2,4,6-tris(bromomethyl)-s-triazine, C(c1nc(C[*:2])nc(C[*:3])n1)[*:1]; Pent4ynoyl = C#CCCC(=O)*
Entries and their measured pKd follow.

{"binder": "ACRWSVEDPCGAWCAK(Pent4ynoyl)-NH2 (linker 2-10-14 via TBMT (inferred)) [BCY13883]", "pKd": 5.74}
{"binder": "ACVGLEELGPCSDLCAK(Pent4ynoyl)-NH2 (linker 2-11-15 via TBMT (inferred)) [BCY13886]", "pKd": 5.66}
